Consider the following molecules; for each one, report its normalized growth.
Experiment Notes: chemical genetic growth profiling, strain panel (AID 1159580);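 further: tested at 20 µM; growth read once vehicle control cultures reached saturation at 30 °C; 1 = growth at the plate median or of vehicle wells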
Experimental Conditions: S. cerevisiae deletion strains, growth OD, locus YGR040W, strain KSS1, stronger effect = lower value
About 2,000 (36%) of roughly 5,500 compounds were called active. Inconclusive results (about 18%) are left out. The list shows a part of the results.
Respond using a number only.

Prompt line: For the molecule shown here, COc1ccc(/C=C2\CSc3ccc(F)cc3C2=O)cc1 , give the reported normalized growth.
Response line: 0.917

Prompt line: Item under review: Cc1nnsc1C(=O)Nc1cc(C(F)(F)F)cc(C(F)(F)F)c1 . Reported normalized growth?
Response line: 1

Prompt line: Param item = Cc1nn(Cc2cccc(C(=O)Nc3ccc(Cl)cc3)c2)c(C)c1Br ; retrieve measured normalized growth.
Response line: 0.965

Prompt line: What value of normalized growth has been recorded for this entry: CS(=NC(=O)c1cccc(Cl)c1)c1ccc(OC(=O)c2ccc(Cl)cc2)cc1 (stereo unspecified)
Response line: 0.96

Prompt line: Field request: normalized growth | item: Cc1cc(NNC(=O)c2ccccc2Cl)nc2c1c(C)nn2C
Response line: 0.958

Prompt line: normalized growth for N#CC(C#N)=C(SCc1c(Cl)cccc1Cl)SCc1c(Cl)cccc1Cl ?
Response line: 0.993

###

Experiment Notes: chemical genetic growth profiling, strain panel (AID 1159580)
Experimental Conditions: S. cerevisiae deletion strains, growth OD, locus YLR262C, strain YPT6, stronger effect = lower value
Hit rate of the full screen: of about 5,500 compounds, about 2,000 (36%) were called active. Inconclusive results (about 18%) are left out. This is one part of the list.
Experimental Endpoint: normalized growth
Answer as a number with no unit attached.

Prompt line: Fill in the blank: the reported normalized growth of CC1(C)C(C=C(Cl)Cl)C1C(=O)OC(C#N)c1cccc(Oc2ccccc2)c1 (centres undefined) is ____.
Response line: 0.99

Prompt line: Value lookup for normalized growth; key = CCC(C)C(OC(C)=O)C(=O)OC1C(O)C2C3(C)C=CC(=O)C(C)(C)C3CC(OC(=O)C(O)C(C)C)C2(C)C23OC2CC(c2ccoc2)C13C (centres undefined)
Response line: 0.973

Prompt line: Consider the molecule CC1=C(CC(=O)O)c2cc(F)ccc2/C1=C\c1ccc(S(C)=O)cc1 (centres undefined) and give its measured normalized growth.
Response line: 0.995

Prompt line: Value lookup for normalized growth; key = CCOC(=O)c1cnc2cc(C)nn2c1C
Response line: 0.99

###

Experiment Notes: chemical genetic growth profiling, strain panel (AID 1159580);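 further: tested at 20 µM; growth read once vehicle control cultures reached saturation at 30 °C; 1 = growth at the plate median or of vehicle wells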
Experimental Conditions: S. cerevisiae deletion strains, growth OD, locus YLL001W, strain dnm1, stronger effect = lower value
Screen size: about 5,500 compounds; about 2,000 (36%) were called active. Inconclusive results (about 18%) are left out. The list shows a part of the results.
Experimental Endpoint: normalized growth
Response field accepts a number only; no unit should be typed.

Prompt line: What value of measured normalized growth is listed for CC(=O)OCC(=O)[C@H]1CCC2C3CCC4=CC(=O)CC[C@]4(C)C3CC[C@@]21C (some centres undefined) ?
Response line: 0.985

Prompt line: Sample CN1CCc2cc3c(cc2[C@H]1C1OC(=O)c2c1ccc1c2OCO1)OCO3 (some centres undefined) — what was its normalized growth?
Response line: 0.987

Prompt line: Tell me the measured normalized growth of CC1=C(/C=C/C(C)=C/C=C/C(C)=C/C=C/C=C(C)/C=C/C=C(C)/C=C/C2=C(C)C(=O)CCC2(C)C)C(C)(C)CCC1=O , please.
Response line: 0.997

Prompt line: Look at this compound and give its reported normalized growth. CC(=O)NC1SCCC1=O (centres undefined)
Response line: 1.02

###

Experiment Notes: chemical genetic growth profiling, strain panel (AID 1159580);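 further: tested at 20 µM; growth read once vehicle control cultures reached saturation at 30 °C; 1 = growth at the plate median or of vehicle wells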
Experimental Conditions: S. cerevisiae deletion strains, growth OD, locus YER167W, strain BCK2, stronger effect = lower value
About 2,000 (36%) of roughly 5,500 compounds were called active. Not shown: some 18% with an inconclusive outcome. This is one part of the list.
Experimental Endpoint: normalized growth
Hey, just send me the number, nothing else.

Prompt line: Recorded normalized growth of Cc1cc(O)c(C)c(O)c1C(=O)O , please.
Response line: 1.01

Prompt line: Tell me the measured normalized growth of O=C(O)c1cc2ccccc2c(Cc2c(O)c(C(=O)O)cc3ccccc23)c1O , please.
Response line: 1

Prompt line: Quick one: normalized growth for ClC1=C(Cl)C2(Cl)C3C4C=CC(C4)C3C1(Cl)C2(Cl)Cl (centres undefined) ?
Response line: 0.977

Prompt line: # query: normalized growth of entry CCN(CC)CCNC(=O)c1cc(Br)c(N)cc1OC
Response line: 1.01

Prompt line: Bench note: what normalized growth did N=c1ccn2c(n1)O[C@@H]1C2O[C@H](CO)[C@H]1O (some centres undefined) show?
Response line: 1.01

Prompt line: # get_value(readout='normalized growth', item= c1cncc(C2CCCCN2)c1 (centres undefined) )
Response line: 0.993

Prompt line: Could you tell me which normalized growth is on file for CC1/C(=N\O)C[C@@H]2C[C@H]1C2(C)C (some centres undefined) ?
Response line: 1.01

Prompt line: Can you share its normalized growth? I mean this compound: CC1(C)C(C=C(Cl)Cl)C1C(=O)OC(C#N)c1cccc(Oc2ccccc2)c1 (centres undefined)
Response line: 0.987

Prompt line: Form field: reported normalized growth of Cc1cc(O)c(C=O)c(O)c1C(=O)O
Response line: 1.03

###

Hi there, I'd appreciate the recorded normalized growth for every entry that follows.
Experiment Notes: chemical genetic growth profiling, strain panel (AID 1159580);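 further: tested at 20 µM; growth read once vehicle control cultures reached saturation at 30 °C; 1 = growth at the plate median or of vehicle wells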
Experimental Conditions: S. cerevisiae deletion strains, growth OD, locus YER110C, stronger effect = lower value
Screen size: about 5,500 compounds; about 2,000 (36%) were called active. Not shown: some 18% with an inconclusive outcome. The list shows a part of the results.
Please reply with the number alone, leaving off any unit.

Prompt line: Entry C[C@H]1CC2C([C@@H](O)C[C@@]3(C)C2CC[C@]3(O)C(=O)CO)[C@@]2(C)C=CC(=O)C=C12 (stereo partly specified) : reported normalized growth = ?
Response line: 1.01

Prompt line: Using the record for c1cncc(C2CCCCN2)c1 (stereo unspecified) , report its normalized growth.
Response line: 0.98

Prompt line: Request the reported normalized growth associated with COC1=C(OC)C(=O)C(C/C=C(\C)CC/C=C(\C)CC/C=C(\C)CC/C=C(/C)CC/C=C(\C)CC/C=C(\C)CC/C=C(\C)CC/C=C(\C)CC/C=C(\C)CCC=C(C)C)=C(C)C1=O
Response line: 0.983

Prompt line: Which normalized growth is reported for this compound? CCCCNc1cc(C(=O)O)cc(S(N)(=O)=O)c1Oc1ccccc1
Response line: 0.978

Prompt line: Which value of normalized growth has been reported for COc1ccc2c(c1)OCc1c-2oc2cc(OC)ccc12 in the records?
Response line: 0.995

Prompt line: Any idea what its normalized growth is? The compound is C[N+](C)(C)CCCCCC[N+](C)(C)C
Response line: 0.979

Prompt line: Query: normalized growth; subject: CCOC(=O)C1(O)Oc2cc(OC)cc(OC)c2C(=O)C1c1ccccc1 (stereo unspecified)
Response line: 0.977

Prompt line: Quick one: normalized growth for CC(C(=O)O)c1ccc(-c2ccccc2)c(F)c1 (stereo unspecified) ?
Response line: 0.974

Prompt line: // query normalized growth value for entry COc1cc2c(cc1OC)[C@@H]1C(=O)c3ccc(OC)c(CC=C(C)C)c3O[C@@H]1CO2
Response line: 1

Prompt line: I have this compound here, CS(=O)(=O)c1ccc(C2=C(c3ccccc3)C(=O)OC2)cc1 , and I need its recorded normalized growth.
Response line: 0.988

Prompt line: Request the reported normalized growth associated with O=C(CC[N+](=O)[O-])OC[C@H]1O[C@@H](O)[C@H](OC(=O)CC[N+](=O)[O-])[C@@H](OC(=O)CC[N+](=O)[O-])[C@@H]1OC(=O)CC[N+](=O)[O-]
Response line: 0.998

Prompt line: // returns reported normalized growth for input C=C(C)C1CNC(C(=O)O)C1CC(=O)O (stereo unspecified)
Response line: 1.02

Prompt line: For the compound shown here, CCCCCCCCCCCCCCCC(=O)OC/C=C(C)/C=C/C=C(C)/C=C/C1=C(C)CCCC1(C)C , give the reported normalized growth.
Response line: 0.985

Prompt line: Need normalized growth of CCOC(=O)C(Cc1ccc(O)cc1)NC(C)=O (stereo unspecified) , thanks.
Response line: 1.01

Prompt line: Record request: normalized growth value, item OCCN1C[C@@H](O)[C@@H](O)C(O)C1CO (stereo partly specified)
Response line: 0.993

Prompt line: Suppose we examine the compound C=C1C2CC[C@H]3[C@]4(C)C[C@H](OC5OC(CO)C(OS(=O)(=O)O)C(OS(=O)(=O)O)C5OC(=O)CC(C)C)C[C@@H](C(=O)O)[C@H]4CC[C@]3(C2)[C@H]1O (stereo partly specified) ; what normalized growth value has been reported?
Response line: 0.975

Prompt line: Need normalized growth, item C=Cc1c2[nH]c(c1C)C=c1[nH]c(c(C)c1C=C)=CC1N=C(C=c3[nH]c(c(C)c3CCC(=O)O)=C2)C(CCC(=O)O)=C1C (stereo unspecified)
Response line: 0.972

Prompt line: Consider the compound shown here: Cc1cccc(C)c1OCC(C)N (stereo unspecified) What is its recorded normalized growth?
Response line: 0.98

Prompt line: // query normalized growth value for entry CC(=O)NC1SCCC1=O (stereo unspecified)
Response line: 1.02

Prompt line: Can you look up the measured normalized growth of COc1cc2c(cc1OC)C(=O)OC2 for me?
Response line: 1.01

Prompt line: Form field: reported normalized growth of COc1cc2c(cc1OC)C1C(=O)c3c(OC)cc4c(c3OC1CO2)CCC(C)(C)O4 (stereo unspecified)
Response line: 0.985
